Values from patent US6211244A

- TARGET_SYSTEM: human calcium receptor (Homo sapiens, UniProt P41180, R990G)
- Construct: expressed in transfected cells; host or cells: HEK 293
- METHOD_NOTES: increases in [Ca^2+ ]i in HEK-293 cells expressing the human calcium receptor (fura-2 loaded HEK 293/pHuPCaR4.0 cells), % activity
- Type: cell-based
- SETTINGS: 33 ng/mL
Consider the following compounds; for each one, report its % activity.
One number for each entry, in %.

INSERT INTO results (compound, observed) VALUES
  ('CC(NCc1cccc(OCc2ccccc2)c1)c1cccc2ccccc12 (stereo not drawn) [Compound 12J]', 113),
  ('CC(O)c1ccc(CNC(C)c2cccc3ccccc23)cc1 (mixture of isomers) [Compound 17B]', 61),
  ('CCc1cccc(C(C)NCc2ccc(OC)c(C)c2)c1 (stereo not drawn) [Compound 23Z]', 100),
  ('COc1ccc([C@H](C)N[C@H](C)c2cccc3ccccc23)cc1C [Compound 25U]', 95);

# return % activity for each item in the list
1. C=CCOc1cccc([C@@H](C)NCc2ccc3ccccc3c2)c1 [Compound 10Z]
2. CC(NC(C)c1cccc2ccccc12)c1ccc(Cl)cc1 (stereo not drawn) [Compound 14S]
3. C[C@@H](NCc1ccc(OC(F)(F)F)cc1)c1cccc2ccccc12 [Compound 23F]
4. COc1cccc([C@@H](C)NCC(C)c2ccccc2)c1 (stereo partly drawn) [Compound 25M]

A.
1: 51; 2: 105; 3: 45; 4: 79

Q. Which % activity is listed for COc1ccc([C@H](C)N[C@@H](C)c2cccc3ccccc23)cc1C [Compound 25V] ?
A. 43

###

Consider the following compounds; for each one, report its % activity.
- TARGET_SYSTEM: human calcium receptor (Homo sapiens, UniProt P41180, R990G)
- Construct: expressed in transfected cells; host or cells: HEK 293
- Sequence (P41180 20-1078 R990G): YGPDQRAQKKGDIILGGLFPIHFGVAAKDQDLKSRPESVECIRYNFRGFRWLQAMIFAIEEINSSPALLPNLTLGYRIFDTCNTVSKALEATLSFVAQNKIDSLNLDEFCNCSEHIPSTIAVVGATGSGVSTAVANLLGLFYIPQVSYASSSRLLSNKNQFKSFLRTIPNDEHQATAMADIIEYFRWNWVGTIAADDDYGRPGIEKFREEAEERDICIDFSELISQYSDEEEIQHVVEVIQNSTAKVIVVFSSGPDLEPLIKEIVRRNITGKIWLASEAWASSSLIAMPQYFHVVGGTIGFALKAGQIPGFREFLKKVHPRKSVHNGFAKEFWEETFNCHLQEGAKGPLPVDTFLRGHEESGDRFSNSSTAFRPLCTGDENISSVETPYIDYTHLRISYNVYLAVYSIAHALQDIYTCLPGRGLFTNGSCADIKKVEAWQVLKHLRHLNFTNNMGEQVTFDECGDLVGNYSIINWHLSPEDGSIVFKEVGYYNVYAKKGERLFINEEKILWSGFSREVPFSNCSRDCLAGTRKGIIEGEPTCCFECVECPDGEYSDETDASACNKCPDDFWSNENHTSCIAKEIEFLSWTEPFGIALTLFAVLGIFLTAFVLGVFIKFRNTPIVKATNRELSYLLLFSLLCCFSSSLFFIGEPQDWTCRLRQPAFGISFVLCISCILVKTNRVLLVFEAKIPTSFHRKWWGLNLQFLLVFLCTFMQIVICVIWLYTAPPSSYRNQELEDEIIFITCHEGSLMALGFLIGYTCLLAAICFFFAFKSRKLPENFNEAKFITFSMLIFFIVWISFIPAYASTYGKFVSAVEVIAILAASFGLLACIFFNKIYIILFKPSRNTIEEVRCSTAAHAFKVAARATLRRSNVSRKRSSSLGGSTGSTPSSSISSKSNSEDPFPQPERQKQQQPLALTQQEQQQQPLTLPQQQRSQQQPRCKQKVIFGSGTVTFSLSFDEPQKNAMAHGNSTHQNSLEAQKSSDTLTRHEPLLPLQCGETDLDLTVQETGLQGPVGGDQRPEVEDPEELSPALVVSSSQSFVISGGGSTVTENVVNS
- METHOD_NOTES: increases in [Ca^2+ ]i in HEK-293 cells expressing the human calcium receptor (fura-2 loaded HEK 293/pHuPCaR4.0 cells), % activity
- Type: cell-based
- SETTINGS: 330 ng/mL
Numbers only, in %.

Field: example entries. Status: answers known.
INSERT INTO assay_data (compound, target_system, observed) VALUES
  ('C[C@@H](CCc1ccccc1)N[C@H](C)c1cccc2ccccc12 [Compound 21G]', 'human calcium receptor (Homo sapiens, UniProt P41180, R990G)', 88),
  ('COc1ccc(CNC(C)c2cccc(C)c2)cc1C (stereo not drawn) [Compound 23Y]', 'human calcium receptor (Homo sapiens, UniProt P41180, R990G)', 87),
  ('CCc1cccc(C(C)NCc2ccc(OC)c(C)c2)c1 (stereo not drawn) [Compound 23Z]', 'human calcium receptor (Homo sapiens, UniProt P41180, R990G)', 126),
  ('Cc1ccc(CN[C@H](C)c2cccc3ccccc23)cc1 [Compound 13P]', 'human calcium receptor (Homo sapiens, UniProt P41180, R990G)', 110),
  ('COc1ccc(CNC(C)c2ccc(C(F)(F)F)cc2)cc1C (stereo not drawn) [Compound 24D]', 'human calcium receptor (Homo sapiens, UniProt P41180, R990G)', 53),
  ('C[C@@H](NCc1cccc(OC(F)(F)F)c1)c1cccc2ccccc12 [Compound 23E]', 'human calcium receptor (Homo sapiens, UniProt P41180, R990G)', 113);

# return % activity for each item in the list
1. COc1cc(C)c(CN[C@H](C)c2cccc3ccccc23)cc1C [Compound 16U]
2. COC(=O)c1cccc(C(C)NCc2ccc(OC)c(C)c2)c1 (stereo not drawn) [Compound 24U]
3. CCc1ccc(C(C)NCc2ccc(OC)c(C)c2)cc1 (stereo not drawn) [Compound 24A]
4. COc1ccc(CNC(C)c2ccccc2C(F)(F)F)cc1C (stereo not drawn) [Compound 24B]
5. CC(NCc1ccc(-c2ccccc2)cc1)c1cccc2ccccc12 (stereo not drawn) [Compound 10N]
6. COc1cccc([C@@H](C)NC(C)CCc2cc(F)cc(F)c2)c1 (stereo partly drawn) [Compound 24P]

A.
[85, 106, 85, 61, 97, 138]

# return % activity for each item in the list
1. COc1cccc(C(C)NCc2ccc(C=Cc3ccccc3)cc2)c1 (stereo not drawn) [Compound 12M]
2. Cc1ccc(CNC(C)c2ccc(C(C)(C)C)cc2)cc1 (stereo not drawn) [Compound 14B]
3. CC(NC(C)c1cccc2ccccc12)c1ccc(Cl)cc1 (stereo not drawn) [Compound 14S]

A.
1. 86
2. 55
3. 106

###

- TARGET_SYSTEM: human calcium receptor (Homo sapiens, UniProt P41180, R990G)
- Construct: expressed in transfected cells; host or cells: HEK 293
- Sequence (P41180 20-1078 R990G): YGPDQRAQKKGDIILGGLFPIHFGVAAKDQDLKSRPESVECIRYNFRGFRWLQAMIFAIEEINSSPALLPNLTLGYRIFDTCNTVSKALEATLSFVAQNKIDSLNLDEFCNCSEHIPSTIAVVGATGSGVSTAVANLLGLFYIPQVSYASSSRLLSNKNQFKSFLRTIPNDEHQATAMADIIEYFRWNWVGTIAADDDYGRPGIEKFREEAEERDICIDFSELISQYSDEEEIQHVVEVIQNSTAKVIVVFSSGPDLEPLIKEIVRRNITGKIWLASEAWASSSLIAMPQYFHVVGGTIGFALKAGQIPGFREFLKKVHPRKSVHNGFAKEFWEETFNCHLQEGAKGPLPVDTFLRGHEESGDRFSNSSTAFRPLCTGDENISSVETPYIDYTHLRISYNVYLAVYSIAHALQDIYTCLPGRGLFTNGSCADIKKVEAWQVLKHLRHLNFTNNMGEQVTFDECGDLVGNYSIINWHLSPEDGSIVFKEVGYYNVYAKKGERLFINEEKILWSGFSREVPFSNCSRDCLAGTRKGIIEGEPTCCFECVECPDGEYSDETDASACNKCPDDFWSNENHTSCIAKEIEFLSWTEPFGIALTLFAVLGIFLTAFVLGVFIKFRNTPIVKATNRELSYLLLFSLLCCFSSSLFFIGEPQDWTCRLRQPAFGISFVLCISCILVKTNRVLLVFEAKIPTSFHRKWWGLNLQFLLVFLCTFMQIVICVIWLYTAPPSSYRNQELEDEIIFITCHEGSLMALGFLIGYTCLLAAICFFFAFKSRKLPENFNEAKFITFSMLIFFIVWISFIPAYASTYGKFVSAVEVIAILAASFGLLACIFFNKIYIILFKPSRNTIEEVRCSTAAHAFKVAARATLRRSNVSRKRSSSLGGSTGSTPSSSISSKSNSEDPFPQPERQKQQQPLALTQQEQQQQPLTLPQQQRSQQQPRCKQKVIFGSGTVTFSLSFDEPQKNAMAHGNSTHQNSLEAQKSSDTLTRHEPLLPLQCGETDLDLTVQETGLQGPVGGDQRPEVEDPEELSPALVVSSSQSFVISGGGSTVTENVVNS
- METHOD_NOTES: increases in [Ca^2+ ]i in HEK-293 cells expressing the human calcium receptor (fura-2 loaded HEK 293/pHuPCaR4.0 cells), % activity
- Format: cell-based
- SETTINGS: 33 ng/mL
Consider the following compounds; for each one, report its % activity.

INSERT INTO assay_data (compound, observed) VALUES
  ('COc1ccc(CNC(C)c2cccc(F)c2)cc1C (stereo not drawn) [Compound 23K]', '72%');

# return % activity for each item in the list
1. COc1ccc(CNC(C)c2c(OC)ccc3ccccc23)cc1C (stereo not drawn) [Compound 18B]
2. C[C@@H](NCc1ccc([N+](=O)[O-])cc1)c1cccc2ccccc12 [Compound 13W]

A.
1. 69%
2. 71%
